molecular target: UniProt:P22303
Sequence (P22303 whole entry): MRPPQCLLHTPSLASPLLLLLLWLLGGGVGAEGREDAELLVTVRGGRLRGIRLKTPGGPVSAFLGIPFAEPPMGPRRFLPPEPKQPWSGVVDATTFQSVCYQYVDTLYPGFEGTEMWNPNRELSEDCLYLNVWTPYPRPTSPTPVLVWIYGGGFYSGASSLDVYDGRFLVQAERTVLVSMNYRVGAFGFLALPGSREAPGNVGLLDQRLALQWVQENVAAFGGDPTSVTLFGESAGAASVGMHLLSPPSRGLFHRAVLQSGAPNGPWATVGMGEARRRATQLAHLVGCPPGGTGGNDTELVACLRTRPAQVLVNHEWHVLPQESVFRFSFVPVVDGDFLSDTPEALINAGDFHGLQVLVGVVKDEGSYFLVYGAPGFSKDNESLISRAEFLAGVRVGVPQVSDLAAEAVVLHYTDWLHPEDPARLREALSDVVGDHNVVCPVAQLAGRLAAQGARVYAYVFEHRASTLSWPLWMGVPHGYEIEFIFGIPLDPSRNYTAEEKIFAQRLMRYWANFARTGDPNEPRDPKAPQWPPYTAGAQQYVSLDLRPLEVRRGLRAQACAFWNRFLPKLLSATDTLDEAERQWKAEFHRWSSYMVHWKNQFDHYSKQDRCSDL
pIC50: −log10 of the molar value.
Lab note: compare pIC50 against 6. Equal or greater, write true (1). Smaller, write false (0).

molecule | tested_system | label_class
COc1cc2cc(C(=O)C3CCC[N+](C)(CC(=O)OC(C)(C)C)CC3)sc2cc1OC (stereo not given) | UniProt:P22303 | true (1)
COc1cc2cc(C3=CC[N+](C)(Cc4ccccc4)CC3)sc2cc1OC (stereo not given) | UniProt:P22303 | false (0)
CCOCC[n+]1ccc(CCC(=O)C2Cc3cc(OC)c(OC)cc3S2)cc1 (stereo not given) | UniProt:P22303 | true (1)

Where do the numbers come from? From ChEMBL document CHEMBL1138798.
